STUDY_TARGET: Tubulin
RUN_DESCRIPTION: Binding affinity to tubulin (unknown origin) assessed as binding constant by SPR analysis
Numbered stars: 1 amine (or outer) side, 2 acyl side, 3 side chain; on linkers, the order of the positions; unused ones are H or OH. Bridge positions count the residues as written; N and C are the ends. Square brackets hold non-standard residues; d marks the D form. Peptide text beside a SMILES is read from it. Nle(6-ylidene) = O=C([C@H](CCCC=[*:3])N[*:1])[*:2]; Phe(4-Br) = N[C@@H](Cc1ccc(Br)cc1)C(=O)O; Phe(4-Cl) = N[C@@H](Cc1ccc(Cl)cc1)C(=O)O; Phe(4-I) = N[C@@H](Cc1ccc(I)cc1)C(=O)O
MEASURED_ENDPOINT: pKd
Recall that pKd is obtained by taking minus log10 of the concentration measured in molar.

Would you mind telling me what pKd value was observed for C[C@H](NC(=O)[C@H](CCCCN)NC(=O)[C@H](CCCNC(=N)N)NC(=O)[C@H](CCCNC(=N)N)NC(=O)[C@@H](N)Cc1ccccc1)C(=O)N[C@@H](Cc1ccccc1)C(=O)N[C@H]1CCC/C=C\CCC[C@@H](C(=O)NCC(=O)O)NC(=O)[C@H](Cc2ccc(O)cc2)NC(=O)[C@H](Cc2c[nH]c3ccccc23)NC(=O)[C@H](Cc2c[nH]cn2)NC1=O (H-FRRKAF[Nle(6-ylidene)]HWY[Nle(6-ylidene)]G-OH; staple (Z) 7-11) ?
5.15

Would you mind telling me what pKd value was observed for CC(=O)N[C@@H](Cc1ccccc1)C(=O)N[C@@H](CCCNC(=N)N)C(=O)N[C@@H](CCCNC(=N)N)C(=O)N[C@@H](CCCCN)C(=O)N[C@@H](C)C(=O)N[C@@H](Cc1ccc(Br)cc1)C(=O)N[C@H]1CCC/C=C\CCC[C@@H](C(=O)NCC(=O)O)NC(=O)[C@H](Cc2ccc(O)cc2)NC(=O)[C@H](Cc2c[nH]c3ccccc23)NC(=O)[C@H](Cc2cnc[nH]2)NC1=O (Ac-FRRKA[Phe(4-Br)][Nle(6-ylidene)]HWY[Nle(6-ylidene)]G-OH; staple (Z) 7-11) ?
5.40

Would you mind telling me what pKd value was observed for CC(=O)N[C@@H](Cc1ccccc1)C(=O)N[C@@H](CCCNC(=N)N)C(=O)N[C@@H](CCCNC(=N)N)C(=O)N[C@@H](CCCCN)C(=O)N[C@@H](C)C(=O)N[C@@H](Cc1ccc(Cl)cc1)C(=O)N[C@H]1CCC/C=C\CCC[C@@H](C(=O)NCC(=O)O)NC(=O)[C@H](Cc2ccc(O)cc2)NC(=O)[C@H](Cc2c[nH]c3ccccc23)NC(=O)[C@H](Cc2cnc[nH]2)NC1=O (Ac-FRRKA[Phe(4-Cl)][Nle(6-ylidene)]HWY[Nle(6-ylidene)]G-OH; staple (Z) 7-11) ?
5.48

Would you mind telling me what pKd value was observed for CC(=O)N[C@@H](Cc1ccccc1)C(=O)N[C@@H](CCCNC(=N)N)C(=O)N[C@@H](CCCNC(=N)N)C(=O)N[C@@H](CCCCN)C(=O)N[C@@H](C)C(=O)N[C@@H](Cc1ccc(I)cc1)C(=O)N[C@H]1CCC/C=C\CCC[C@@H](C(=O)NCC(=O)O)NC(=O)[C@H](Cc2ccc(O)cc2)NC(=O)[C@H](Cc2c[nH]c3ccccc23)NC(=O)[C@H](Cc2cnc[nH]2)NC1=O (Ac-FRRKA[Phe(4-I)][Nle(6-ylidene)]HWY[Nle(6-ylidene)]G-OH; staple (Z) 7-11) ?
5.39
